Molecular target: Mfd (Escherichia coli, UniProt P30958 1-1148)
Test: SPR; 0.5 mM ATPgS; SPR: 30 mM Tris/HCl pH 7.6, 40 mM KCl, 5 mM MgCl2, 0.005% P20, 0.25 mM EDTA, 0.5 mM DTT, 0.5 mM ATPgS, 20 C; smFRET: 20 mM Tris/HCl pH 8.0, 40 mM KCl, 5 mM MgCl2, 1 mM 2-mercaptoethanol
Conditions: protein: recombinant; tags: none stated; label: 5' Cy3; 5' biotin and 3' Cy5 on AS18; 18 bp with 5' overhang 40 nt
attributeMeasured: Kd (nM)

• Cy3_dT40_S18:bio_AS18_Cy5 (dsDNA) DNA 1: TTTTTTTTTTTTTTTTTTTTTTTTTTTTTTTTTTTTTTTTGCCTCGCTGCCGTCGCCA DNA 2: TGGCGACGGCAGCGAGGC = 390
